The measurements presented in this section are drawn from ChEMBL document CHEMBL1201862.

System: UACC-257
Test: NCI tumour cell line growth inhibition, 48 h
Calls of active or inactive are those of the source. Rule as the data show it: active = GI50 up to about 1.1 µM and inactive = higher. Where a SMILES comes first, the peptide text is derived from it. The star is where a group is joined. Fmoc = O=C(OCC1c2ccccc2-c2ccccc21)*; Boc = CC(C)(C)OC(=O)*
Outcome field: choose from active, inactive

QUERY: # fetch the recorded call for CCOP(=O)(OCC)C(C)(C)OC(=O)NC(F)(F)F here
RESULT: inactive

QUERY: Please let me know the test result on file for COC(=O)C(CCSc1ccccc1)C(=O)OC .
RESULT: inactive

QUERY: How did this test come out for CCCCC(C(=O)C(=O)Nc1ccc(C)cc1C)C(=O)C(C)C (stereo unspecified) ?
RESULT: inactive

QUERY: Outcome logged for Cc1cc(O)c2c(c1)C(C1OC(CO)C(O)C(O)C1O)c1cc(O)cc(O)c1C2=O (stereo unspecified) in this assay:
RESULT: inactive

QUERY: Check the results log: what was the call for O=c1nc2n(CCO)c(-c3ccccc3)c(-c3ccccc3)nc-2c(=O)[nH]1 ?
RESULT: inactive

QUERY: Please share the test call associated with CCCCCCCCCC1CC(=O)Oc2cccc(O)c21 (stereo unspecified) .
RESULT: inactive

QUERY: // outcome(item) with item = O=C1CSC(c2cccs2)N1c1nc2cc3sc(N4C(=O)CSC4c4cccs4)nc3cc2s1 (stereo unspecified)
RESULT: inactive

QUERY: Each compound tested received a call. Report the one for CCOC(=O)C1=C(Nc2ccccc2)SC/C1=N\NC(=O)Cc1ccccc1 .
RESULT: inactive

QUERY: Please let me know the test result on file for CCOC(=O)C1=C(C)N(C2OC(COC(C)=O)C(OC(C)=O)C(OC(C)=O)C2OC(C)=O)C(=O)NC1c1ccccc1 (stereo unspecified) .
RESULT: inactive

QUERY: I would be grateful if you could indicate the recorded call for CC1(C)CC(=O)c2c([nH]c(=S)c(C#N)c2-c2ccc(Br)cc2)C1 .
RESULT: inactive

QUERY: // outcome(item) with item = COC(=O)/C=C\Sc1ccn(/C=C\C(=O)OC)c(=S)n1
RESULT: inactive

QUERY: Test call, this compound: Cc1c(O)c(=O)ccn1CCc1ccc(O)cc1
RESULT: inactive

QUERY: Look up the recorded call for Cc1cc2cc3c(cc2c(-c2ccc([N+](=O)[O-])cc2)n1)OCO3 in this test.
RESULT: inactive

QUERY: What was the test verdict on Cc1cc(=O)oc2cc3c(cc12)Oc1ccccc1O3 ?
RESULT: inactive

QUERY: Would you mind telling me which call this test gave c1ccc(NNC2=NCCN2)cc1 ?
RESULT: inactive

QUERY: Each compound tested received a call. Report the one for CCCN(C(=O)c1c(Cl)nnc(Cl)c1C(=O)c1cc(Cl)nnc1Cl)c1cc(Cl)nnc1Cl .
RESULT: inactive

QUERY: Just curious, what result did COC(=O)CCCCCOS(=O)(=O)c1ccc(C)cc1 get here?
RESULT: inactive

QUERY: Call for entry O=C(CO)CC(=O)C(=O)Nc1ccccc1 :
RESULT: inactive

QUERY: // return assay outcome for CC(C)(C)OC(=O)NCCCCC(NC(=O)C(Cc1c[nH]c2ccccc12)NC(=O)OCC1c2ccccc2-c2ccccc21)C(=O)O (stereo unspecified) (Fmoc-Trp-Lys(Boc)-OH; configuration not given here)
RESULT: inactive

QUERY: Look up the recorded call for COc1ccc(CN(O)C2C(CO)OC(n3cc(I)c(=O)[nH]c3=O)C2O)cc1 (stereo unspecified) in this test.
RESULT: inactive

QUERY: How did this test come out for CC1(C)C2C=CC1(C)C1(CC2)OCCO1 (stereo unspecified) ?
RESULT: inactive

QUERY: Outcome? CCCCCCCCCCCCCC(=O)OC(/C=C/C(C)C)C(O)C(O)C(OC)C(=O)NC1CCCCN(C)C1=O (stereo unspecified)
RESULT: inactive

QUERY: # fetch the recorded call for O=C1C(CO)=C[C@H](O)[C@H]2O[C@@H]12 here
RESULT: inactive

QUERY: Record request — test call for CCN(CC)CCC(=O)N1C/C(=C/c2ccccc2)C(=O)/C(=C\c2ccccc2)C1
RESULT: inactive

QUERY: Any idea what this test logged for CN1C(=O)C(O)C[C@@H]1c1ccccc1 (stereo partly specified) ?
RESULT: inactive

QUERY: Given CCC1=NC(N/N=C/c2ccco2)=N/C1=C\c1ccccc1O , state the outcome it received in this test.
RESULT: inactive

QUERY: Which result was noted for this compound in the test: COc1ccc(C2Oc3c(cccc3OC)C=C2[N+](=O)[O-])cc1 (stereo unspecified)
RESULT: inactive

QUERY: Recorded test outcome, item CCOC(=O)c1c(CN2CCNCC2)nc2ccccc2c1-c1ccccc1
RESULT: inactive

QUERY: // return assay outcome for CCOC(=O)Nn1c(C)nnc1CC#N
RESULT: inactive

QUERY: So what was the verdict on O=[N+]([O-])c1cc(Cl)ccc1S(=O)(=O)c1ccc(Cl)cc1[N+](=O)[O-] in this test?
RESULT: inactive

QUERY: For COC(=O)[C@](C)(Cc1ccccc1)NC(=O)[C@@H](C)N1[C@@H](c2ccccc2)COC1(C)C , which call appears in the assay record?
RESULT: inactive

QUERY: Per the assay record, what outcome was assigned to CC1(C)NC(=O)N(CCCCCCN2C(=O)NC(C)(C)C2=O)C1=O ?
RESULT: inactive

QUERY: Outcome? O=C1OC(=O)c2cc(S(=O)(=O)c3ccc4c(c3)C(=O)OC4=O)ccc21
RESULT: inactive

QUERY: Hi, do you know how Brc1ccc2c(-c3csc(-c4c[nH]c5ccc(Br)cc45)n3)c[nH]c2c1 came out in this test?
RESULT: inactive

QUERY: Recorded test outcome, item COC1=CC(=O)c2c(O)c3c(c(O)c2C1=O)C=C(C)OC3O (stereo unspecified)
RESULT: active

QUERY: Would you mind telling me which call this test gave N#CC1(C#N)C(c2ccccc2)C=CC(c2ccc([N+](=O)[O-])cc2)C1(C#N)C#N (stereo unspecified) ?
RESULT: inactive
